- System: Escherichia coli TOP10;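 also: peptides expressed intracellularly from a pBAD plasmid library in pooled LB shake-flask culture, induced with 0.3% L-arabinose, DNA abundance read by NGS, three biological replicates, DESeq2 with apeglm shrinkage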
- protocol summary: shrunken log2 fold change of peptide-encoding DNA abundance (4.5 h post-induction vs induction); higher = less antimicrobial activity (less host growth inhibition)
- condition context: time post-induction: 4.5 h; library: site-saturation at positions 5, 18, 19, 20
This listing pairs sequences with measured shrunken log2 fold change.
Give only the figure.

Observe how each entry below is paired with its result.
# sequence entry, shrunken log2 fold change
rows = [
    ("RRIRFRPPRLPRPRPRPMKVPRP", -0.344),
    ("RRIRLRPPRLPRPRPRPCTCPRP", -0.238),
]

Write down the reported shrunken log2 fold change of RRIRKRPPRLPRPRPRPFKNPRP , test system: Escherichia coli TOP10. -0.0646

What would you report for RRIRARPPRLPRPRPRPMHAPRP ? 0.409

Item: RRIRVRPPRLPRPRPRPYLEPRP -0.141

# iterate: RRIRSRPPRLPRPRPRPWHNPRP -0.00544

Similarly, RRIRHRPPRLPRPRPRPGWAPRP ? 0.344

Repeat with RRIRRRPPRLPRPRPRPQRNPRP 0.245

# iterate: RRIRNRPPRLPRPRPRPSLVPRP -0.292

This collection of values is drawn from the supplement of paper PMC9112550.
